This collection of values is drawn from paper PMC7156458.

- target.or.system: UniProt P05067
- assay.procedure: Th-T (thioflavin-T) assay of Aβ42 aggregation
- Assay type: biochemical
- condition: Aβ42 aggregation time course, reading M130
Th-T fluorescence, mean of three wells for assorted molecules
// no unit, no text: just the number

Examples with their reported Th-T fluorescence, mean of three wells follow.
| molecule | Th-T fluorescence, mean of three wells |
| --- | --- |
| C=C1CCC2C(C)(CC(=O)C=C(C)C)C(O)CCC2(C)C1Cc1c(O)c(C)c(C)oc1=O (stereo not shown) | 3.435 |
| C=C1CC[C@@H]2[C@](C)(CC[C@H]3O[C@H](C=C(C)C)C[C@@]23C)[C@@H]1Cc1c(O)c(C)c(C)oc1=O | 3.004 |
| CC(C)=CCC/C(C)=C/CC/C(C)=C/CC/C(C)=C/Cc1c(O)c(C)c(C)oc1=O | 2.914 |
| C=C1CC[C@H]2[C@]3(C)C[C@H](C=C(C)C)O[C@H]3CC[C@]2(C)[C@@H]1Cc1c(OC)oc(CO)c(C)c1=O | 3.763 |
| C=C1CC[C@H]2[C@]3(C)C[C@@H](C=C(C)C)O[C@H]3CC[C@]2(C)[C@@H]1Cc1c(OC)oc(CO)c(C)c1=O | 3.633 |

QUERY: Name the recorded Th-T fluorescence, mean of three wells for C=C1CCC2C(C)(CCC=C(C)C)C(=O)CCC2(C)C1Cc1c(O)c(C)c(C)oc1=O (stereo not shown) .
RESULT: 2.222

QUERY: Note, next up: C=C1CCC2C(C)(CCC=C(C)C)C(O)CCC2(C)C1Cc1c(OC)oc(C)c(C(=O)OC)c1=O (stereo not shown)
RESULT: 1.6991

====

- target.or.system: Aβ42 (Homo sapiens)
- Sequence (P05067 672-713): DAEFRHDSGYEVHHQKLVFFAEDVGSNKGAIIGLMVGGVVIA
- assay.procedure: Th-T (thioflavin-T) assay of Aβ42 aggregation
- Type: biochemical
- condition: column suffix _50; reading M17
Th-T assay signal, mean of three wells (Fig. 7a) for assorted compounds
// no unit, no text: just the number

Examples with their reported Th-T assay signal, mean of three wells (Fig. 7a) follow.
| compound | value.observed |
| --- | --- |
| C=C1CCC2C(C)(CCC=C(C)C)C(O)CCC2(C)C1Cc1c(OC)oc(CO)c(C(=O)OC)c1=O (centres unmarked) | 0.1848 |
| C=C1CCC2C(C)(CCC=C(C)C)C(O)CCC2(C)C1Cc1c(OC)oc(CO)c(C)c1=O (centres unmarked) | 1.76 |
| C=C1CC[C@@H]2[C@](C)(CC[C@H]3O[C@H](C=C(C)C)C[C@@]23C)[C@@H]1Cc1c(OC)oc(CO)c(C(=O)OC)c1=O | 0.2108 |
| C=C1CC[C@@H]2[C@](C)(CC[C@H]3O[C@H](C=C(C)C)C[C@@]23C)[C@@H]1Cc1c(OC)oc(CO)c(C)c1=O | 2.183 |

QUERY: Name the recorded Th-T assay signal, mean of three wells (Fig. 7a) for C=C1CCC2C(C)(CCC=C(C)C)C(O)CCC2(C)C1Cc1c(OC)oc(C)c(C(=O)OC)c1=O (centres unmarked) .
RESULT: 0.5148

====

- target.or.system: Aβ42 (Homo sapiens)
- assay.procedure: Th-T (thioflavin-T) assay of Aβ42 aggregation
- Type: biochemical
- condition: compound at 10; reading M42 of time course
// class 0 strictly below 3 in Th-T fluorescence, mean of three wells; class 1 otherwise

# count of solved cases: 4
| compound | group |
| --- | --- |
| C=C1CCC2C(C)(CCC=C(C)C)C(O)CCC2(C)C1Cc1c(OC)oc(C)c(C(=O)OC)c1=O (centres unmarked) | class 0 |
| C=C1CCC2C(C)(CCC=C(C)C)C(O)CCC2(C)C1Cc1c(OC)oc(CO)c(C)c1=O (centres unmarked) | class 1 |
| C=C1CC[C@@H]2[C@](C)(CC[C@H]3O[C@H](C=C(C)C)C[C@@]23C)[C@@H]1Cc1c(OC)oc(CO)c(C(=O)OC)c1=O | class 0 |
| C=C1CCC2C(C)(CCC=C(C)C)C(O)CCC2(C)C1Cc1c(OC)oc(CO)c(C(=O)OC)c1=O (centres unmarked) | class 0 |

Okay, next one:
QUERY: # check: Th-T fluorescence, mean of three wells of "C=C1CC[C@@H]2[C@](C)(CC[C@H]3O[C@H](C=C(C)C)C[C@@]23C)[C@@H]1Cc1c(OC)oc(CO)c(C)c1=O" is greater than or equal to 3
RESULT: class 1
